Exercise: for every item that follows, state its recorded pIC50.
# Target of assay: Dihydroorotate dehydrogenase (quinone), mitochondrial (Plasmodium falciparum)
# Sequence (Q54A96 whole entry): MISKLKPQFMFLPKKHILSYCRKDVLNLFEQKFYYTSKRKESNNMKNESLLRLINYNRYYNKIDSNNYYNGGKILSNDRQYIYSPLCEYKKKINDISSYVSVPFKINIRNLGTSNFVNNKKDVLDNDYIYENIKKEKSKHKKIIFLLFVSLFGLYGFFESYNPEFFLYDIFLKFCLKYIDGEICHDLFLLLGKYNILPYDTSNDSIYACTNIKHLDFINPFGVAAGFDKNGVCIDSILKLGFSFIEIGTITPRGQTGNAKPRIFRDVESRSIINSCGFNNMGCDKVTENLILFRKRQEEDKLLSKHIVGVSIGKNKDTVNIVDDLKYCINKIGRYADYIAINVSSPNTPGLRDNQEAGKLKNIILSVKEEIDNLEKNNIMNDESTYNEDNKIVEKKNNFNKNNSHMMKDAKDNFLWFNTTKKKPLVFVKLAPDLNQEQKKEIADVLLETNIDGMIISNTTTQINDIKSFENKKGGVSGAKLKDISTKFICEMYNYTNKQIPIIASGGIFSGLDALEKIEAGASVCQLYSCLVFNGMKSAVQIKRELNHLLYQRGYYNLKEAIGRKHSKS
One number for each entry, as −log10 of the molar value.

// worked examples, pIC50 included
INSERT INTO measurements (compound, numeric_value) VALUES
  ('Cc1ccccc1/C=C/c1cc(O)c2ccccc2n1 [US8703811, 2]', 6.03),
  ('O=C(NC1CC1)c1ccc(N2CCSc3ccccc32)s1 [US8703811, 5]', 6.60),
  ('CCOC(=O)c1[nH]c(C)c(Cc2ccc(OCC)cc2)c1C [US8703811, 6]', 7.08);

# map each compound to its pIC50
1. CCCCCC1CCCc2c1nc1ccccc1c2O (stereo not given) [US8703811, 3]
2. CCCNC(=O)c1ccc(-n2c(C)cc3ccccc32)s1 [US8703811, 1]

### Response
6.47
6.38

====

# Target of assay: Dihydroorotate dehydrogenase (quinone), mitochondrial [100-517] (Plasmodium berghei (strain Anka))
# Construct: 100-517
# Sequence (A0A509AEH5 whole entry): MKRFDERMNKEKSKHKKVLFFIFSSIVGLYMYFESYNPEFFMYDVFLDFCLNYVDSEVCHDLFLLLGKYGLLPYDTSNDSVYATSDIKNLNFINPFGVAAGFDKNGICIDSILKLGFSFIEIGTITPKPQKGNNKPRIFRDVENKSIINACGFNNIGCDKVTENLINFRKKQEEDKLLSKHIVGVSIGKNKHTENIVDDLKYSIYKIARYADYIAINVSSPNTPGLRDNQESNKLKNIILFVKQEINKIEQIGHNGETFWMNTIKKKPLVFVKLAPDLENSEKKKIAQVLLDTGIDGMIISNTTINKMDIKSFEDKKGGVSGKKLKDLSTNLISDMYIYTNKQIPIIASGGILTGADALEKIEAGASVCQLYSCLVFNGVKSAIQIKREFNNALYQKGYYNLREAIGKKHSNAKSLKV
# Procedure details: Continuous Assay
Endpoint name: pIC50
Numbers only, as −log10 of the molar value.

# map each compound to its pIC50
1. Cc1ccccc1/C=C/c1cc(O)c2ccccc2n1
2. CCOC(=O)c1[nH]c(C)c(Cc2ccc(OCC)cc2)c1C

### Response
[6.25, 7.22]

### Prompt Which pIC50 is reported for this compound? CCCCCC1CCCc2c1nc1ccccc1c2O (stereo not drawn)
### Response 6.96

====

# Target of assay: UniProt Q02127
# Sequence (Q02127 whole entry): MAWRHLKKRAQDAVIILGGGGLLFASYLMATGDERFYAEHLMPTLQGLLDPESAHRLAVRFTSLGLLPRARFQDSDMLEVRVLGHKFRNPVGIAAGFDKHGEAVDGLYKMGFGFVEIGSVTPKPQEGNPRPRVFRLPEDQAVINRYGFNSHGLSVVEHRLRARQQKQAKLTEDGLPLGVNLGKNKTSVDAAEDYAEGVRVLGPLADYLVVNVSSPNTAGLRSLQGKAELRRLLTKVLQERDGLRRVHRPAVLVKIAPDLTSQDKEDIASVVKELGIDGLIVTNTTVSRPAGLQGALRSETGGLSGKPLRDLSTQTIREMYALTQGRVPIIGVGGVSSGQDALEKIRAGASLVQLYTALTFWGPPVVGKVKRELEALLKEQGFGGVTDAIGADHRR
pIC50: −log10 of the molar value.
Endpoint name: pIC50

INSERT INTO assay_data (compound, endpoint_name, result) VALUES
  ('Cc1ccccc1/C=C/c1cc(O)c2ccccc2n1', 'pIC50', '< 4.52');

# map each compound to its pIC50
1. CCOC(=O)c1[nH]c(C)c(Cc2ccc(OCC)cc2)c1C
2. CCCCCC1CCCc2c1nc1ccccc1c2O (stereo not drawn)

### Response
1: < 4.52; 2: < 4.52

The measured values listed here are drawn from BindingDB's records for doi:10.1074/jbc.M804990200.
